# subject-of-test: ULK1 kinase (Homo sapiens, UniProt O75385, E37A/K38A)
# Construct: (residues 1-283; ID NO: 1); purchased Beryllium
# Sequence (O75385 1-283 E37A/K38A): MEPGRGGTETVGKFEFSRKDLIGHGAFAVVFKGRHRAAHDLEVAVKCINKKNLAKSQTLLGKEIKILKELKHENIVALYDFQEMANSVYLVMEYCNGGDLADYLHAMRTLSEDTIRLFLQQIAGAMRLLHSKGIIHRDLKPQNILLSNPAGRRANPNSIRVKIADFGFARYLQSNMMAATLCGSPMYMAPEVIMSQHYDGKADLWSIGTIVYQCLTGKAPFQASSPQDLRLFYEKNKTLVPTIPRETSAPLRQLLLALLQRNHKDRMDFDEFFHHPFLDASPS
# experimental-details: Biochemical assay for ULK1 (coupled pyruvate kinase/lactate dehydrogenase assay)
# test-context: 1 mM ATP, 0.1 nM ULK1; read-out: ULK1 (inhibition of biochemical activity), IC50
pIC50: −log10 of the molar value.
measured-attribute: pIC50

Form: Entry = CC/C(Nc1cnn(C2CCN(C(C)C)CC2)c1)=C1/C(=O)Nc2ccc(C(=O)NCC3(C)CCCO3)cc21 (stereo not shown) [Example 174] | System = ULK1 kinase (Homo sapiens, UniProt O75385, E37A/K38A) | pIC50 = ____
≥ 8.00

Form: Entry = `CC/C(Nc1cnn(C2CCN(C(C)C)CC2)c1)=C1/C(=O)Nc2ccc(C(=O)N(C)CC(F)(F)F)cc21` | System = ULK1 kinase (Homo sapiens, UniProt O75385, E37A/K38A) | pIC50 = ____
≥ 8.00

---

Recorded IC50, one value per entry.
# subject-of-test: ULK1 kinase (Homo sapiens, UniProt O75385, E37A/K38A)
# Construct: (residues 1-283; ID NO: 1)
# experimental-details: Biochemical assay for ULK1 (coupled pyruvate kinase/lactate dehydrogenase assay)
# test-context: 1 mM ATP, 0.1 nM ULK1; read-out: ULK1 (inhibition of biochemical activity), IC50

molecule	IC50
CC/C(Nc1cnn(C(C)C)c1)=C1/C(=O)Nc2ccc(C(=O)NCC3(C)CCOC3)cc21 (stereo not shown)	10 to 100 nM
CC/C(Nc1cnn(C2CCN(C(C)C)CC2)c1)=C1/C(=O)Nc2ccc(C(=O)NCC3CC(F)(F)C3)cc21	≤ 10 nM
CC/C(Nc1cnn(C(C)C)c1)=C1/C(=O)Nc2ccc(C(=O)N[C@H](C)C(F)(F)F)cc21	≤ 10 nM
CC/C(Nc1cnn2c1CCC2)=C1/C(=O)Nc2ccc(C(=O)NCC(F)(F)F)cc21	> 500 nM
CC/C(Nc1cnn(C(F)(F)F)c1)=C1/C(=O)Nc2ccc(C(=O)NCC(C)C)cc21	10 to 100 nM

What value of IC50 has been reported for the following molecule? `CC/C(Nc1cnn(C2CCN(C(C)C)CC2)c1)=C1/C(=O)Nc2ccc(C(=O)NCCOC)cc21`
≤ 10 nM

What value of IC50 has been reported for the following molecule? `CC/C(Nc1ccc(N2CCN(C(C)C)CC2)cc1)=C1/C(=O)Nc2cc(F)c(C(=O)NCC(F)(F)F)cc21`
100 to 500 nM

What value of IC50 has been reported for the following molecule? `CC/C(Nc1cnn(C(C)C)c1)=C1/C(=O)Nc2ccc(C(=O)NCCOC(F)(F)F)cc21`
≤ 10 nM

---

# subject-of-test: UniProtKB Q8IYT8
# Sequence (Q8IYT8 with tags, fused parts or gaps): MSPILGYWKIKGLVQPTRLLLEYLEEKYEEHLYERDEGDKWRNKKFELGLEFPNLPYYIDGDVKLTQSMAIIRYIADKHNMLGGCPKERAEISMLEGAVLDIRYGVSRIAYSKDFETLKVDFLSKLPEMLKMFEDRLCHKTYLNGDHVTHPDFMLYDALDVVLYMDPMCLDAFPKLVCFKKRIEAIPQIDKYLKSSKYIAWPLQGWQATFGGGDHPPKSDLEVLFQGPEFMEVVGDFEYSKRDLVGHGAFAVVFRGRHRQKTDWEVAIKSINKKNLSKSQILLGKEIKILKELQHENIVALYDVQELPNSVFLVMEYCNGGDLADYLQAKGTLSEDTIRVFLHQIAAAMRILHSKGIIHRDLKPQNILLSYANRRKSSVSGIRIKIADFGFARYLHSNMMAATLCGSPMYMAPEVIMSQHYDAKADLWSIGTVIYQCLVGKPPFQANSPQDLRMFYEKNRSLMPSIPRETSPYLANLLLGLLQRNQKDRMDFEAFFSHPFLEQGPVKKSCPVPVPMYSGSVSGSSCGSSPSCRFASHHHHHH
pIC50: −log10 of the molar value.
measured-attribute: pIC50

What value of pIC50 has been reported for the following molecule? CC/C(Nc1cnn(CC(C)OC)c1)=C1/C(=O)Nc2ccc(C(=O)NCC(F)(F)F)cc21 (centres unmarked)
6.30 to 7.00

What value of pIC50 has been reported for the following molecule? `CC/C(Nc1cnn(C(C)C)c1)=C1/C(=O)Nc2ccc(C(=O)NCC3(C)COC3)cc21`
6.30 to 7.00

---

Recorded pIC50, one value per entry.
# subject-of-test: LRRK2 kinase (Homo sapiens, UniProt Q5S007)
# Sequence (Q5S007 with tags, fused parts or gaps): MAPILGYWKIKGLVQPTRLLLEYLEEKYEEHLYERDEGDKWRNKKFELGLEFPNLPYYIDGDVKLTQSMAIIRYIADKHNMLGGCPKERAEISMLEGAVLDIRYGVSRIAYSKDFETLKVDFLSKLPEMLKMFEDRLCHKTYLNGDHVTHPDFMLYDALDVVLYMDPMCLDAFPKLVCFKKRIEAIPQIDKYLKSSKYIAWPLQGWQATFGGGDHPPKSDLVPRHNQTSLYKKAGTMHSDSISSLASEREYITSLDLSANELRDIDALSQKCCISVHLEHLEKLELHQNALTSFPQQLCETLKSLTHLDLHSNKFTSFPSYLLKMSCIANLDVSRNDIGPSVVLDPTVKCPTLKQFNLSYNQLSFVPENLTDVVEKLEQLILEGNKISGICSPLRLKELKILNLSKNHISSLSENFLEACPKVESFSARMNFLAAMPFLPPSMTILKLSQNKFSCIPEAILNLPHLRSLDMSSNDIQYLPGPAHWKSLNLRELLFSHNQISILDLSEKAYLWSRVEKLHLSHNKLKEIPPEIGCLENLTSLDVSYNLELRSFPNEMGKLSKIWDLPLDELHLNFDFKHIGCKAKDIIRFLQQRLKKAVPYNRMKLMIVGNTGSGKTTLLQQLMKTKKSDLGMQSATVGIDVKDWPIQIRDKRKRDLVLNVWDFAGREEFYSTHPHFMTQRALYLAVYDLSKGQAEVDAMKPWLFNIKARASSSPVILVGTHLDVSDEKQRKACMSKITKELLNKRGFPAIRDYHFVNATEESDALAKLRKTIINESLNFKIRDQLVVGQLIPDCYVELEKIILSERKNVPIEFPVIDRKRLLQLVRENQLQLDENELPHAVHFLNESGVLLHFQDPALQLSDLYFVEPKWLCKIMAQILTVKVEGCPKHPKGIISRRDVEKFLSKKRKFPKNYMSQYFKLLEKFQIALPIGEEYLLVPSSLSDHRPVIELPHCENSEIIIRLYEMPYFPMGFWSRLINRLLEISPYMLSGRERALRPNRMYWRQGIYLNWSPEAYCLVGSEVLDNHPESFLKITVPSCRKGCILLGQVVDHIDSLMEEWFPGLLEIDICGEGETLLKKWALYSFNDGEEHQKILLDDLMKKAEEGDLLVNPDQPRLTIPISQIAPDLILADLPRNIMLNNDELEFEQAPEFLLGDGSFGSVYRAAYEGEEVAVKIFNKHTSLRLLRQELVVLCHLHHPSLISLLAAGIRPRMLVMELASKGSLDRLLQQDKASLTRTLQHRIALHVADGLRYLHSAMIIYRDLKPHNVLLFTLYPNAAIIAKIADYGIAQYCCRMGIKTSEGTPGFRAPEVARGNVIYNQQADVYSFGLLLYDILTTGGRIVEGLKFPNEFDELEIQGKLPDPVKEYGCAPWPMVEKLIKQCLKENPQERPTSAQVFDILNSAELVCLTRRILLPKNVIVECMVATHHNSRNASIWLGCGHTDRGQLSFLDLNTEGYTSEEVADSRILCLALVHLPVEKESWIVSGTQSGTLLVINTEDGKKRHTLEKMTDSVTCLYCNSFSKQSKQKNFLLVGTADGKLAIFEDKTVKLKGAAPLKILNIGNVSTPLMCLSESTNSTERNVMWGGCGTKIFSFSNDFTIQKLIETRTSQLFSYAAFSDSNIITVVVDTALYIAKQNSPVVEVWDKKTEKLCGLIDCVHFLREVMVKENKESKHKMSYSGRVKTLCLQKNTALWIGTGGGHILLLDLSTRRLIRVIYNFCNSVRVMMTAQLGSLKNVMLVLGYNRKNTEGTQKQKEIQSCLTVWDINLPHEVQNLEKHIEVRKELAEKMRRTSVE
pIC50: −log10 of the molar value.

compound	pIC50
CC/C(Nc1cnn(C(C)C)c1)=C1/C(=O)Nc2ccc(C(=O)NCC3(C(F)(F)F)CC3)cc21	≥ 7.00
CC/C(Nc1cnn(C2CCN(C(C)C)CC2)c1)=C1/C(=O)Nc2ccc(C(C)=O)cc21	6.52 to 7.00
CC/C(Nc1cnn(C(C)C)c1)=C1/C(=O)Nc2ccc(C(=O)NCC(F)(F)F)cc21	≥ 7.00
CC/C(Nc1ccc(N2CCN(C)CC2)cn1)=C1/C(=O)Nc2ccc(C(=O)NCC(F)(F)F)cc21	≥ 7.00
CC/C(Nc1cnn(C(C)C)c1)=C1/C(=O)Nc2ccc(C(=O)NCC3CCC(C)(C)O3)cc21 (stereo not shown)	6.52 to 7.00
CC/C(Nc1cnn(C(F)(F)F)c1)=C1/C(=O)Nc2ccc(C(=O)NCC(F)(F)F)cc21	6.52 to 7.00

The record that follows has no pIC50 shown yet.
Form: Entry = `CC/C(Nc1cnn(C2CCNCC2)c1)=C1/C(=O)Nc2ccc(C(=O)NC[C@H]3CCCO3)cc21` | System = LRRK2 kinase (Homo sapiens, UniProt Q5S007) | pIC50 = ____
6.52 to 7.00

---

Recorded pIC50, one value per entry.
# System: ULK kinase substrate ATG13 (pS318-ATG13) in MiaPaCa-2 cells
# experimental-details: pATG13 levels of mutant KRas MiaPaCa-2 cells after treatment with ULK inhibitors in combination with trametinib (ELISA)
# Type: cell-based, human
pIC50: −log10 of the molar value.

compound	measured-attribute	experimental-result
CC/C(Nc1ccc(N2CCN(C)CC2)c(F)c1)=C1/C(=O)Nc2ccc(C(=O)NCC(F)(F)F)cc21	pIC50	≥ 7.00
CC/C(Nc1cnn(C)c1)=C1/C(=O)Nc2ccc(C(=O)NCC(F)(F)F)cc21	pIC50	≥ 7.00
CC/C(Nc1cnn(C2CN(C(C)C)C2)c1)=C1/C(=O)Nc2ccc(C(=O)NC[C@H]3CCCO3)cc21	pIC50	≥ 7.00
CC/C(Nc1cnn(CC(C)OC)c1)=C1/C(=O)Nc2ccc(C(=O)NCC(F)(F)F)cc21 (stereo not drawn) [Example 158]	pIC50	6.52 to 7.00

What value of pIC50 has been reported for the following compound? `CC/C(Nc1ccc(N2CCN(C(C)C)CC2)cn1)=C1/C(=O)Nc2ccc(C(=O)NC[C@H]3CCCO3)cc21`
≥ 7.00

What value of pIC50 has been reported for the following compound? `CC/C(Nc1cnn(C(C)C)c1)=C1/C(=O)Nc2ccc(C(=O)NCCC#N)cc21`
6.52 to 7.00

What value of pIC50 has been reported for the following compound? `CC/C(Nc1ccc(N2CCN(C(C)C)CC2)cc1)=C1/C(=O)Nc2cc(F)c(C(=O)NCC(F)(F)F)cc21`
6.52 to 7.00

What value of pIC50 has been reported for the following compound? `CC/C(Nc1cnn(C2CCN(C(C)C)CC2)c1)=C1/C(=O)Nc2ccc(C(=O)NCCOC)cc21`
≥ 7.00

What value of pIC50 has been reported for the following compound? `CC/C(Nc1cnn(C(C)C)c1)=C1/C(=O)Nc2ccc(C(=O)NCC3(C(F)(F)F)CC3)cc21`
≥ 7.00

---

# subject-of-test: ULK1 kinase (Homo sapiens, UniProt O75385, E37A/K38A)
# Construct: (residues 1-283; ID NO: 1)
# experimental-details: Biochemical assay for ULK1 (coupled pyruvate kinase/lactate dehydrogenase assay)
# test-context: 1 mM ATP, 0.1 nM ULK1; read-out: ULK1 (inhibition of biochemical activity), IC50
pIC50: −log10 of the molar value.
Recorded pIC50, one value per entry.

compound	subject-of-test	experimental-result
CC/C(Nc1cnn(C(C)C)n1)=C1/C(=O)Nc2ccc(C(=O)NCC(F)(F)F)cc21	ULK1 kinase (Homo sapiens, UniProt O75385, E37A/K38A)	7.00 to 8.00
CC/C(Nc1ccc(N2C[C@H]3CN(C)C[C@H]3C2)cc1)=C1/C(=O)Nc2ccc(C(=O)NCC(C)C)cc21	ULK1 kinase (Homo sapiens, UniProt O75385, E37A/K38A)	7.00 to 8.00
CC/C(Nc1cnn(C2CCN(C(C)C)CC2)c1)=C1/C(=O)Nc2ccc(C(=O)NCCc3cnn(C)c3)cc21	ULK1 kinase (Homo sapiens, UniProt O75385, E37A/K38A)	6.30 to 7.00
CC/C(Nc1cnn(C2CCN(CC3CCC3)CC2)c1)=C1/C(=O)Nc2ccc(C(=O)NCC(C)C)cc21	ULK1 kinase (Homo sapiens, UniProt O75385, E37A/K38A)	≥ 8.00
CC/C(Nc1cnn(C(C)C)c1)=C1/C(=O)Nc2ccc(C(=O)NCCC(C)(C)F)cc21	ULK1 kinase (Homo sapiens, UniProt O75385, E37A/K38A)	≥ 8.00
CC/C(Nc1cnn(C2CN(CC)C2)c1)=C1/C(=O)Nc2ccc(C(=O)NC[C@H]3CCCO3)cc21	ULK1 kinase (Homo sapiens, UniProt O75385, E37A/K38A)	≥ 8.00
CC/C(Nc1cnn(C2CCN(C(C)C)CC2)c1)=C1/C(=O)Nc2ccc(C(=O)NCC3CCC(C4CC4)O3)cc21 (centres unmarked)	ULK1 kinase (Homo sapiens, UniProt O75385, E37A/K38A)	7.00 to 8.00
CC/C(Nc1cnn(C(C)C)c1)=C1/C(=O)Nc2ccc(C(=O)NCC3(OC)CC3)cc21	ULK1 kinase (Homo sapiens, UniProt O75385, E37A/K38A)	7.00 to 8.00
CC/C(Nc1cnn(C2CCC2)c1)=C1/C(=O)Nc2ccc(C(=O)NCC(C)(C)F)cc21	ULK1 kinase (Homo sapiens, UniProt O75385, E37A/K38A)	≥ 8.00
CC/C(Nc1cnn(C2CCN(CC3CC3)CC2)c1)=C1/C(=O)Nc2ccc(C(=O)NCC(C)C)cc21	ULK1 kinase (Homo sapiens, UniProt O75385, E37A/K38A)	≥ 8.00

What value of pIC50 has been reported for the following compound? `CC/C(Nc1cnn(C2CCN(C(C)C)CC2)c1)=C1/C(=O)Nc2ccc(C(=O)NCC(C)(C)OC)cc21`
7.00 to 8.00

What value of pIC50 has been reported for the following compound? `CC/C(Nc1ccc(N2CC3CC(C2)N3C)cc1)=C1/C(=O)Nc2ccc(C(=O)NC[C@H]3CCCO3)cc21`
≥ 8.00

What value of pIC50 has been reported for the following compound? `CC/C(Nc1cnn(CC(F)F)c1)=C1/C(=O)Nc2ccc(C(=O)NCC(C)(C)F)cc21`
≥ 8.00

What value of pIC50 has been reported for the following compound? `CC/C(Nc1cnn(C2CN(C)C2)c1)=C1/C(=O)Nc2ccc(C(=O)NCC(F)(F)F)cc21`
≥ 8.00
